Target: T1, blood platelet receptor glycoprotein Ib-IX-V complex (GPIb) (human, UniProt P07359 17-652; P13224 26-206; P14770 17-177; P40197 17-560)
T1 construct: whole, on cells; also called GPIb complex; GPIb receptor
T1 sequence (P07359 17-652, chain 1 of 4): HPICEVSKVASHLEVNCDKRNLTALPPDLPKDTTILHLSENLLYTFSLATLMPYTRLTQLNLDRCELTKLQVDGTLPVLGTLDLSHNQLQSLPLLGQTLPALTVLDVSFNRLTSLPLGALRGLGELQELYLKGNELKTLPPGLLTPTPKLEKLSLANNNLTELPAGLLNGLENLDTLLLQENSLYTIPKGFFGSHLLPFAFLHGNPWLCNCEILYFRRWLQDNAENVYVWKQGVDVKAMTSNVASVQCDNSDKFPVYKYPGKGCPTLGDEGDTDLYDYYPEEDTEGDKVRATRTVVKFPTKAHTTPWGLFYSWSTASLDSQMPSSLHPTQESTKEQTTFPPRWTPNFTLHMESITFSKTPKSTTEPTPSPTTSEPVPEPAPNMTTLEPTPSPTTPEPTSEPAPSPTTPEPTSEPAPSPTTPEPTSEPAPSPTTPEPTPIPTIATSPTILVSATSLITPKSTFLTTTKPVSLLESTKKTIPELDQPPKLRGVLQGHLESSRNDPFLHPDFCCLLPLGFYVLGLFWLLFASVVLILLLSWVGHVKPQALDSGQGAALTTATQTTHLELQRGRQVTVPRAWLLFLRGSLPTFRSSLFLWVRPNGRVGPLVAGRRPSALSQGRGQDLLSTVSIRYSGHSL
T1 sequence (P13224 26-206, chain 2 of 4): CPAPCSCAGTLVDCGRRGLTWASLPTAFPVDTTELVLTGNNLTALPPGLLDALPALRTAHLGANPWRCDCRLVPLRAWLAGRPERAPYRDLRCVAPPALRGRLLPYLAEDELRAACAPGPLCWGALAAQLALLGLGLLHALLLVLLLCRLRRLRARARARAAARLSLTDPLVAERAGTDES
T1 sequence (P14770 17-177, chain 3 of 4): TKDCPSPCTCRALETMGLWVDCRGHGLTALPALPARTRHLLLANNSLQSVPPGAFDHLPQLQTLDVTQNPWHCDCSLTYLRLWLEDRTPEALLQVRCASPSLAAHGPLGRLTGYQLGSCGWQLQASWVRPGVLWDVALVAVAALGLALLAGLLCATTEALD
T1 sequence (P40197 17-560, chain 4 of 4): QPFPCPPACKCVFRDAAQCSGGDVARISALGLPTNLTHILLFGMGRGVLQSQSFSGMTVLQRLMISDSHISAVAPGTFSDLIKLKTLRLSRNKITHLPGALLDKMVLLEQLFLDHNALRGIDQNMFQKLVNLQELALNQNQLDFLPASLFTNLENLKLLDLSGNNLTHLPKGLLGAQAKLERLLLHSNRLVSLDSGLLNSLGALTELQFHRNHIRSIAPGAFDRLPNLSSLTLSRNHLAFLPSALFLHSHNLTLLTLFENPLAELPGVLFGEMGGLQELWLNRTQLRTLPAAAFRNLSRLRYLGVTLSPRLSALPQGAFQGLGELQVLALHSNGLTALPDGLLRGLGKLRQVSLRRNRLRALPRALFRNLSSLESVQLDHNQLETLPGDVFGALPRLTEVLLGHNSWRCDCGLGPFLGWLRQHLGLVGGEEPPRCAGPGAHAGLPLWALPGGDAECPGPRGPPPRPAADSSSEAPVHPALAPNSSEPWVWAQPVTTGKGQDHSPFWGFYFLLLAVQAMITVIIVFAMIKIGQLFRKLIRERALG
Test: inhibition of static adhesion of human platelets to coated vWF-A1; grade C = IC50 lower than 1 µM
pIC50: −log10 of the molar value. Non-standard residues stand in square brackets, D forms with d. Nle = CCCC[C@H](N)C(=O)O; Orn = NCCC[C@H](N)C(=O)O; Nva = CCC[C@H](N)C(=O)O; Abu = CC[C@H](N)C(=O)O; Dap = NC[C@H](N)C(=O)O; Ahp = NCCCCCCC(=O)O
OBSERVED_PROPERTY: pIC50

Take a look at these entries with their results.
cyclo(LHNL[Ahp]TERM[Dap]) (SMILES CSCC[C@@H]1NC(=O)[C@H](CCCNC(=N)N)NC(=O)[C@H](CCC(=O)O)NC(=O)[C@H]([C@@H](C)O)NC(=O)CCCCCCNC(=O)[C@H](CC(C)C)NC(=O)[C@H](CC(N)=O)NC(=O)[C@H](Cc2c[nH]cn2)NC(=O)[C@H](CC(C)C)NC(=O)[C@H](CN)NC1=O) [Cyclo[Leu-His-Asn-Leu-NH-(CH2)6-CO-Thr-Glu-Arg-Met-Dpr]]; > 6.00
cyclo(LHNL[Ahp]TER[Abu]A) (SMILES CC[C@@H]1NC(=O)[C@H](CCCNC(=N)N)NC(=O)[C@H](CCC(=O)O)NC(=O)[C@H]([C@@H](C)O)NC(=O)CCCCCCNC(=O)[C@H](CC(C)C)NC(=O)[C@H](CC(N)=O)NC(=O)[C@H](Cc2c[nH]cn2)NC(=O)[C@H](CC(C)C)NC(=O)[C@H](C)NC1=O) [Cyclo[Leu-His-Asn-Leu-NH-(CH2)6-CO-Thr-Glu-Arg-Abu-Ala]]; > 6.00
cyclo(LHNL[Ahp]TER[Nle]A) (SMILES CCCC[C@@H]1NC(=O)[C@H](CCCNC(=N)N)NC(=O)[C@H](CCC(=O)O)NC(=O)[C@H]([C@@H](C)O)NC(=O)CCCCCCNC(=O)[C@H](CC(C)C)NC(=O)[C@H](CC(N)=O)NC(=O)[C@H](Cc2c[nH]cn2)NC(=O)[C@H](CC(C)C)NC(=O)[C@H](C)NC1=O) [Cyclo[Leu-His-Asn-Leu-NH-(CH2)6-CO-Thr-Glu-Arg-Nle-Ala]]; > 6.00
cyclo([Nva]HNL[Ahp]TERMA) (SMILES CCC[C@@H]1NC(=O)[C@H](C)NC(=O)[C@H](CCSC)NC(=O)[C@H](CCCNC(=N)N)NC(=O)[C@H](CCC(=O)O)NC(=O)[C@H]([C@@H](C)O)NC(=O)CCCCCCNC(=O)[C@H](CC(C)C)NC(=O)[C@H](CC(N)=O)NC(=O)[C@H](Cc2c[nH]cn2)NC1=O) [Cyclo[Nva-His-Asn-Leu-NH-(CH2)6-CO-Thr-Glu-Arg-Met-Ala]]; > 6.00

In the following, a different binder is considered.
Look up pIC50: cyclo(LHNL[Ahp]TE[Orn]MA) (SMILES CSCC[C@@H]1NC(=O)[C@H](CCCN)NC(=O)[C@H](CCC(=O)O)NC(=O)[C@H]([C@@H](C)O)NC(=O)CCCCCCNC(=O)[C@H](CC(C)C)NC(=O)[C@H](CC(N)=O)NC(=O)[C@H](Cc2c[nH]cn2)NC(=O)[C@H](CC(C)C)NC(=O)[C@H](C)NC1=O) [Cyclo[Leu-His-Asn-Leu-NH-(CH2)6-CO-Thr-Glu-Orn-Met-Ala]] > 6.00
